meta.source: PubChem BioAssay AID179

# Test system: CEM cells HIV-1 protection, formazan growth assay
# assay_overview: NCI AIDS Antiviral Assay;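 active = compounds giving half or more protection of infected cells from virus-caused growth loss, again on retest; inactive = the rest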
# Description: The ability of compounds to protect human CEM cells from HIV-1 infection is measured as a screen for new compounds capable of inhibiting the HIV virus. Five concentrations of drug were tested on uninfected and infected cells and cell growth was measured using a soluble formazan assay. […] Compounds that provided at least 50% protection were retested. Compounds that provided at least 50% protection on retest were listed as moderately active. […]
Outcome field: choose from active, inactive

Q: I'd appreciate the recorded outcome for CC(=O)Nc1ccc(-c2nnc(SCC(=O)Nc3ccccc3Cl)o2)cc1 from this test.
A: inactive

Q: I'd appreciate the recorded outcome for CCOC(=O)Cc1oc2c(C(C)=O)c(O)c(C)c(O)c2c1C from this test.
A: inactive

----------
# Test system: CEM cells HIV-1 protection, formazan growth assay
# assay_overview: NCI AIDS Antiviral Assay
pEC50: −log10 of the molar value.
quantity: pEC50

Known results for molecules:
O=[N+]([O-])c1cc([N+](=O)[O-])c2no[n+]([O-])c2c1Nc1ccccc1	< 4.25
N#Cc1ncn(Cc2ccccc2)c1N	< 3.70

Q: Identify the measured pEC50 of COc1c(NS(=O)(=O)c2ccccc2)cc2c3c(cccc13)/C(=C1\Cc3cccc4c(OC)c(NS(=O)(=O)c5ccccc5)cc1c34)C2 for CEM cells HIV-1 protection, formazan growth assay.
A: < 3.70

Q: Identify the measured pEC50 of CC(=O)O[C@H]1CCC2[C@@H]3CCC4C(=O)c5[nH]ncc5C[C@]4(C)C3CC[C@@]21C (stereo partly specified) for CEM cells HIV-1 protection, formazan growth assay.
A: < 4.06

Q: Identify the measured pEC50 of COC(=O)[C@@H]1C=C[C@H](OC2OC(COC(C)=O)C(OC(C)=O)C(OC(C)=O)C2OC(C)=O)n2c(=O)c3ccccc3c(=O)n21 (stereo partly specified) for CEM cells HIV-1 protection, formazan growth assay.
A: < 3.70

Q: Identify the measured pEC50 of CCOP(=O)(CCC(O)CNc1nc(N)nc(Cl)c1N=Nc1ccc(Cl)cc1)OCC (stereo unspecified) for CEM cells HIV-1 protection, formazan growth assay.
A: < 3.70

Q: Identify the measured pEC50 of CCOC(=O)N1N(c2ccccc2)C(=O)C1(c1ccccc1)c1ccccc1 for CEM cells HIV-1 protection, formazan growth assay.
A: < 3.70

Q: Identify the measured pEC50 of C[Si](C)(C)c1ccc(-c2sc(-c3ccc([Si](C)(C)C)s3)c3c2C[Si]2(C3)Cc3c(-c4ccc([Si](C)(C)C)s4)sc(-c4ccc([Si](C)(C)C)s4)c3C2)s1 for CEM cells HIV-1 protection, formazan growth assay.
A: < 5.24

----------
# Tested on: CEM cells HIV-1 protection, formazan growth assay
# assay_overview: NCI AIDS Antiviral Assay
# recorded_conditions: measured here: growth of uninfected CEM cells
# Protocol: The ability of compounds to protect human CEM cells from HIV-1 infection is measured as a screen for new compounds capable of inhibiting the HIV virus. Five concentrations of drug were tested on uninfected and infected cells and cell growth was measured using a soluble formazan assay. […] Compounds that provided at least 50% protection were retested. Compounds that provided at least 50% protection on retest were listed as moderately active. […]
quantity: pIC50
Keep it numeric: pIC50 is minus log10 of the concentration in mol/L.

Known results for molecules:
CC(=O)Oc1ccc(-c2cc3ccccc3oc2=O)cc1OC(C)=O	5.08
CC1NOC(=O)C1N=Nc1ccccc1Br (stereo unspecified)	4.20

Please look at the following molecule next.
Q: Reported pIC50, molecule CC(=O)Nc1ccc(-c2nnc(SCC(=O)Nc3ccccc3)o2)cc1 : ____
A: 4.68

----------
# System: CEM cells HIV-1 protection, formazan growth assay
# assay_overview: NCI AIDS Antiviral Assay
# recorded_conditions: measured here: growth of uninfected CEM cells
In plain terms, low IC50, meaning strictly below 20 µM, gives Met, and everything else gives Not met.

Worked cases, answers included:
O=[N+]([O-])c1ccc(-c2csc3nc(-c4ccccc4)nn23)cc1	Not met
CC(=O)OCc1cn(S(=O)(=O)c2ccc(C)cc2)cn1	Not met
Cc1cc(C)c(NS(=O)c2cccc(C(F)(F)F)c2)c(C)c1 (configuration not stated)	Not met
CCOC(=O)N1C/C(=C\c2ccccc2)C(=O)/C(=C/c2ccccc2)C1	Met

Turning now to a further compound:
Q: Confirm or reject: IC50 of COC(=O)N/N=C(\c1nc2ccc(Cl)cc2[nH]c1=O)C(O)c1ccc([N+](=O)[O-])cc1 (configuration not stated) lies strictly below 20 µM
A: Not met

----------
# System: CEM cells HIV-1 protection, formazan growth assay
# assay_overview: NCI AIDS Antiviral Assay;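 active = compounds giving half or more protection of infected cells from virus-caused growth loss, again on retest; inactive = the rest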
Outcome field: choose from active, inactive

Worked cases, answers included:
Cc1cc2c(nn1)CCc1c-2no[n+]1[O-]	inactive
CC(C)(C)[Si](C)(C)OCC1OC(n2ccc(=O)[nH]c2=O)C(O[Si](C)(C)C(C)(C)C)C1C/C=[N+](/[O-])CC1OC(n2ccc(=O)[nH]c2=O)C(O[Si](C)(C)C(C)(C)C)C1O[Si](C)(C)C(C)(C)C (centres undefined)	inactive

Q: I'd appreciate the recorded outcome for N#Cc1c(N=C/C=C/c2ccccc2)c(C(=O)Nc2ccccc2)n2c1CCC2 from this test.
A: inactive

Q: I'd appreciate the recorded outcome for C=CCOc1cc2c(ccc1=O)-c1c(cc(OC)c(OC)c1OC)CCC2NC(C)=O (centres undefined) from this test.
A: inactive

Q: I'd appreciate the recorded outcome for Cn1c(CCC2(C)Cc3ccccc3C(=O)O2)cc2ccccc2c1=O (centres undefined) from this test.
A: inactive

Q: I'd appreciate the recorded outcome for O=c1ccn2n1CCCCC2 from this test.
A: inactive

Q: I'd appreciate the recorded outcome for CCOC(=O)c1cc(-c2ccccc2)c(OC)c(=O)nc1-c1ccccc1 from this test.
A: inactive

Q: I'd appreciate the recorded outcome for N#CCCC1C(C#N)C2CC1C1C3C=CC(C3)C21 (centres undefined) from this test.
A: inactive

Q: I'd appreciate the recorded outcome for CN(C)c1ccc(/C=c2\sc3nc4ccccc4n3c2=O)cc1 from this test.
A: inactive

Q: I'd appreciate the recorded outcome for CCCN(CCC)C(=S)N/N=C/c1ccccn1 from this test.
A: inactive

Q: I'd appreciate the recorded outcome for CCOC(=O)/C(=C\c1cccc(Cl)c1)P(=O)(OCC)OCC from this test.
A: inactive

----------
# System: CEM cells HIV-1 protection, formazan growth assay
# assay_overview: NCI AIDS Antiviral Assay;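 active means compounds giving half or more protection of infected cells from virus-caused growth loss, again on retest; inactive means the rest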
Where a SMILES comes first, the peptide text is derived from it. [ ]: non-standard residue; d: D form. The star is where a group is joined. ξ: configuration not given here. Bz = O=C(c1ccccc1)*; Bn = c1ccc(C*)cc1; ξC = NC(CS)C(=O)O
Outcome field: choose from true for active, false for inactive

Worked cases, answers included:
O=C([O][Bi]([c]1ccccc1)[c]1ccccc1)C(F)(F)F	false
COc1ccc(CCNC(=O)Cc2ccccc2CCO)cc1OC	false

Q: I'd appreciate the recorded outcome for CCc1[nH]c(=O)c2oc3cc4ccccc4cc3c2c1C(=O)O from this test.
A: false

Q: I'd appreciate the recorded outcome for O=C1C2CSCC1CN(Cc1ccccc1)C2 from this test.
A: false

Q: I'd appreciate the recorded outcome for C/C=C1\CN2CCc3c([nH]c4ccccc34)C2CC1C(=O)OC (centres undefined) from this test.
A: false

Q: I'd appreciate the recorded outcome for CCOP12(OCC)NC(=O)OC1(C(F)(F)F)c1ccccc1O2 (centres undefined) from this test.
A: false

Q: I'd appreciate the recorded outcome for CCN(CC)c1ccc(C2N3CCCCC3[C@@H]3c4[nH]c5ccccc5c4CCN23)cc1 (some centres undefined) from this test.
A: false

Q: I'd appreciate the recorded outcome for Cn1c(=O)c(S(C)=O)c(O)c2ccccc21 (centres undefined) from this test.
A: false

Q: I'd appreciate the recorded outcome for CN1C(=O)c2ccccc2OC12C=Cc1c(ccc3ccccc13)O2 (centres undefined) from this test.
A: false

Q: I'd appreciate the recorded outcome for CSCC(NP1(=O)SC(NN=C(C)C)=NC1(C)C)C(=O)O (centres undefined) from this test.
A: false

Q: I'd appreciate the recorded outcome for Cc1ccc2c(c1)[nH]c(=S)n2C=C1C(=O)CC(C)(C)CC1=O from this test.
A: false

Q: I'd appreciate the recorded outcome for O=C(CNC(=O)c1ccccc1)NC(CSCc1ccccc1)C(=O)O (centres undefined) (Bz-Gly-[ξC](Bn)-OH) from this test.
A: false

----------
# System: CEM cells HIV-1 protection, formazan growth assay
# assay_overview: NCI AIDS Antiviral Assay
In this section we review reported EC50 values for a set of compounds.

Known results for compounds:
O=Cc1cccc(/C=N/Nc2nnc(N/N=C/c3cccc(C=O)c3)c3ccccc23)c1	> 200 µM
OC1NC2Nc3ccccc3NC2NC1O (stereo not given)	> 200 µM
O=C(Nc1c(Cl)cc([N+](=O)[O-])cc1Cl)/C(=N\Nc1cccc(Cl)c1)c1c(O)c2ccccc2oc1=O	> 24.5 µM

Q: Reported EC50, compound O=c1[nH]nc(NCCc2ccccc2)c2nnn(Cc3ccccc3)c12 : ____
A: > 200 µM

Q: Reported EC50, compound C=C(CCC(Cl)C(COS(=O)(=O)c1ccc(C)cc1)OC(CCCO[Si](c1ccccc1)(c1ccccc1)C(C)(C)C)OCC)[Si](C)(C)C (stereo not given) : ____
A: > 5.01 µM

Q: Reported EC50, compound Cc1nnc2n1N=C(CC(=O)c1ccc(O)cc1O)CN2N : ____
A: > 832 µM

Q: Reported EC50, compound C#CCOCn1cnc2ncnc(N)c21 : ____
A: > 1230 µM

Q: Reported EC50, compound CC1CN=C(N(C(=O)Nc2ccc(Cl)c(Cl)c2)c2ccccc2)S1 (stereo not given) : ____
A: > 200 µM

Q: Reported EC50, compound CCOc1ccccc1N=Nc1c(-c2ccccc2)nn(C(=O)CC(=O)Nc2cccc(Cl)c2)c1-c1ccccc1 : ____
A: > 45.7 µM

Q: Reported EC50, compound C=C(C)[C@@H]1CCC2=C[C@@H](OC2=O)[C@@H](C(=C)C)C2=CC(C(=O)O)=C(C1)O2 : ____
A: > 200 µM
